The reported measurements were obtained from PubChem BioAssay (NCATS).

Tested on: CP252
Experiment: qHTS profiling for inhibitors of Plasmodium falciparum proliferation (AID 504749); note: nearly all actives have a fitted effect of over 60% in size
Conditions: P. falciparum in erythrocytes, SYBR Green DNA, 72 h; series mostly up to 28.7 µM
Records with an inconclusive call do not appear. Active and inactive are the calls of the source. Calls come from the whole dose curve; as a rule, active = well fitted inhibition curve with a large enough effect; inconclusive = small, poorly fitted or top-dose-only effect; inactive = flat fitted curve, though single readings scatter.
# output must be one of 1 for active, 0 for inactive

Example entries begin here.
Molecule | Test Target | Assigned Class
C=C1CC[C@@]2(O)[C@H]3Cc4ccc(O)c5c4[C@@]2(CCN3CC2CC2)[C@H]1O5 | CP252 | 0
CC[C@@H](CO)NC(=O)[C@@H]1C=C2c3cccc4[nH]cc(c34)C[C@H]2N(C)C1 | CP252 | 0
Nc1ccncc1 | CP252 | 0
CCN(CC)CCOC(=O)C(O)(c1ccccc1)c1ccccc1 | CP252 | 0

# fetch the recorded call for C[C@]12C/C(=C/O)C(=O)C[C@@H]1CC[C@@H]1[C@@H]2CC[C@@]2(C)[C@H]1CC[C@]2(C)O here
0

Recorded test outcome, item O=c1[nH]c2ccccc2n1C1CCN(CCCC(c2ccc(F)cc2)c2ccc(F)cc2)CC1
0

Assay outcome for Oc1cc(Cl)ccc1Oc1ccc(Cl)cc1Cl : what was it?
1

Just curious, what result did CCCC1CCCCN1 (configuration not stated) get here?
0

Look up the recorded call for Clc1ccc(COC(Cn2ccnc2)c2ccc(Cl)cc2Cl)cc1 (configuration not stated) in this test.
1

* * *

Molecular target: Cytochrome P450 1A2 (Homo sapiens)
Assay: p450-cyp1a2 (AID 410)
Details: recombinant CYP1A2, luciferin-ME demethylation, luminescence; series mostly up to 57 µM
Records with an inconclusive call do not appear. Activity calls are given as the source filed them. Calls come from the whole dose curve.
# valid calls are active, inactive; nothing else

Molecule | Test Target | Assigned Class
C#CCN(C)[C@H](C)Cc1ccccc1 | Cytochrome P450 1A2 (Homo sapiens) | active

For this molecule, state the assay outcome: NN=C(N)N
inactive

Field: outcome | Entry: CCCN1CCC[C@@H]2Cc3[nH]ncc3C[C@H]21
inactive

Check the results log: what was the call for Nc1ccncc1 ?
inactive

* * *

Test system: P93_24
Experiment: qHTS profiling for inhibitors of Plasmodium falciparum proliferation (AID 504749); note: nearly all actives have a fitted effect of over 60% in size
Settings: P. falciparum in erythrocytes, SYBR Green DNA, 72 h; series mostly up to 28.7 µM
Results filed as inconclusive are left out. Active and inactive are the calls of the source. The call rests on the fitted dose curve; in most records, active means well fitted inhibition curve with a large enough effect; inconclusive means small, poorly fitted or top-dose-only effect; inactive means flat fitted curve, though single readings scatter.
I would appreciate it if you answered using one of these outcomes: y (active), n (inactive)

Answered examples (2):
Compound | Assigned Class
NP(N)(=O)NC(=O)c1ccc(F)cc1 | n
CCOC(=O)C1(c2ccccc2)CCN(CCC(C#N)(c2ccccc2)c2ccccc2)CC1 | y

Per the assay record, what outcome was assigned to CCCC(C)(COC(N)=O)COC(=O)NC(C)C (stereo unspecified) ?
n

Hey, what did the test say about CN1C[C@H](CNC(=O)OCc2ccccc2)C[C@@H]2c3cccc4c3c(cn4C)C[C@H]21 ?
y

Dear colleague, could you share the recorded outcome for CN1C(=S)CN=C(c2ccccc2)c2cc(Cl)ccc21 when you have a moment?
n

* * *

Details: Ebola virus entry assay, green fluorescence channel
Results with a measured potency or affinity are listed apart.
Note: every record was labeled by where its efficacy sits among Low = under -20%, Mid = from -20% up to 10%, High = 10% and over

For orientation, consider the following solved cases.
Compound | Assigned Class
Cc1ncc([N+](=O)[O-])n1CCO | Low
O[C@@H](CNC[C@H](O)[C@H]1CCc2cc(F)ccc2O1)[C@@H]1CCc2cc(F)ccc2O1 | Low
CC(C)C[C@H](NC(=O)[C@H](Cc1ccccc1)NC(=O)c1cnccn1)B(O)O | Low
CN(C)CCC=C1c2ccccc2C=Cc2ccccc21 | High
NC(=O)C(c1ccccc1)(c1ccccc1)[C@@H]1CCN(CCc2ccc3c(c2)CCO3)C1 | High
C[C@@H](c1ncncc1F)C(O)(Cn1cncn1)c1ccc(F)cc1F (stereo partly specified) | Mid
CC(C)(C(=O)O)c1ccc(C(O)CCCN2CCC(C(O)(c3ccccc3)c3ccccc3)CC2)cc1 (stereo unspecified) | Mid
CC1Cc2ccccc2N1NC(=O)c1ccc(Cl)c(S(N)(=O)=O)c1 (stereo unspecified) | High
CC(CCc1ccccc1)NC(C)C(O)c1ccc(O)cc1 (stereo unspecified) | High
Oc1cn2c(n1)Nc1ccc(Cl)c(Cl)c1C2 | Mid

Lab note: next compound to report on.
Pick a category. Item: CC(C)C(=O)Nc1ccc([N+](=O)[O-])c(C(F)(F)F)c1
Mid

* * *

Experiment: qHTS of pediatric cancer cell lines to identify multiple opportunities for drug repurposing: Primary screen for SK-N-SH cells (AID 1347098);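 note: DMSO served as neutral control and bortezomib at 2.3 µM as positive control; % is set by controls: 0 for no effect and ±100 for the full control effect; nearly all actives have a fitted effect of over 65% in size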
Conditions: SK-N-SH viability, CellTiter-Glo luminescence, 48 h; series mostly up to 57 µM
Inconclusive results are not listed. Activity calls are given as the source filed them. Calls follow the shape of the dose curve; as a rule, active = well fitted cell-killing curve with a large enough effect; inconclusive = small, poorly fitted or top-dose-only effect; inactive = no such curve, though single readings can be large or run the other way.
Endpoint: Potency

The examples below pair each entry with its known result.
Compound | Result
CCCN1CCC[C@@H]2Cc3nc(N)ncc3C[C@H]21 | inactive
NP(N)(=O)NC(=O)c1ccc(F)cc1 | inactive
Cn1c(CCCC(=O)O)nc2cc(N(CCCl)CCCl)ccc21 | inactive
Cc1ccc2c(c1)C1CN(C)CCC1N2 (configuration not stated) | inactive
N[C@@H](Cc1ccc(Oc2cc(I)c(O)c(I)c2)c(I)c1)C(=O)O | inactive

Which Potency is reported for this compound? CCN(CC)CCN1C(=O)CN=C(c2ccccc2F)c2cc(Cl)ccc21
inactive

Query (compound): COc1ccc(C(=O)c2c(C)n(CCN3CCOCC3)c3ccccc23)cc1 ; field requested: Potency
inactive

* * *

Molecular target: Flap endonuclease 1 (Homo sapiens)
Assay: qHTS Validation Assay for the Inhibitors of Human Flap endonuclease 1 (FEN1) (AID 488816)
Conditions: FEN1 nuclease activity, fluorogenic DNA substrate; series mostly up to 57.1 µM
Calls of active or inactive are those of the source. Calls come from the whole dose curve; as a rule, active = well fitted inhibition curve with a large enough effect; inconclusive = small, poorly fitted or top-dose-only effect; inactive = flat fitted curve, though single readings scatter.
Hello, when you answer, please use one of the following outcomes: 1 (yes) for active, 0 (no) for inactive

Worked examples follow.
Compound | Test Target | Assigned Class
c1ccc2c(c1)OCC(C1=NCCN1)O2 (configuration not stated) | Flap endonuclease 1 (Homo sapiens) | 0 (no)
O=C1NCN(c2ccccc2)C12CCN(CC1COc3ccccc3O1)CC2 (configuration not stated) | Flap endonuclease 1 (Homo sapiens) | 0 (no)
NCC(CC(=O)O)c1ccc(Cl)cc1 (configuration not stated) | Flap endonuclease 1 (Homo sapiens) | 0 (no)
CC(=O)[C@H]1CC[C@H]2[C@@H]3CC[C@H]4C[C@](C)(O)CC[C@]4(C)[C@H]3CC[C@]12C | Flap endonuclease 1 (Homo sapiens) | 0 (no)
C=C(C)[C@H]1Cc2c(ccc3c2O[C@@H]2COc4cc(OC)c(OC)cc4[C@@H]2C3=O)O1 | Flap endonuclease 1 (Homo sapiens) | 0 (no)

How did this test come out for CC12CC3CC(C)(C1)CC(N)(C3)C2 ?
0 (no)

Write down the call the test reported for this compound. Item: CC(O)(CS(=O)(=O)c1ccc(F)cc1)C(=O)Nc1ccc(C#N)c(C(F)(F)F)c1 (configuration not stated)
0 (no)

Kindly provide the recorded test outcome for the following compound: Fc1ccc(C(OCCN2CCN(CCCc3ccccc3)CC2)c2ccc(F)cc2)cc1
0 (no)

In this assay, the call recorded for Nc1ccncc1 was what?
0 (no)

Call for entry N#CC(C#N)=Cc1ccc(O)c(O)c1 :
1 (yes)

Assay result, entry COC[C@H]1OC(=O)c2coc3c2[C@@]1(C)C1=C(C3=O)C2CCC(=O)[C@@]2(C)C[C@H]1OC(C)=O (some centres not stated) — outcome?
0 (no)

For Cc1ncc(CNC(=O)N(CCCl)N=O)c(N)n1 , what call appears in the results of this test?
0 (no)

Please share the test call associated with COc1ccc(C(CN(C)C)C2(O)CCCCC2)cc1 (configuration not stated) .
0 (no)

Please share the test call associated with CCOC(=O)c1ncn2c1CN(C)C(=O)c1cc(F)ccc1-2 .
0 (no)

How was Cc1cc2c(C(C)C)c(O)c(O)c(C=O)c2c(O)c1-c1c(C)cc2c(C(C)C)c(O)c(O)c(C=O)c2c1O classified in this test?
1 (yes)

* * *

Test: High Content Imaging Cell-Based qHTS for Inhibitors of the mTORC1 Signaling Pathway in MEF Cells (AID 2667)
Conditions: series mostly up to 38.3 µM
Records with an inconclusive call do not appear. Active and inactive are the calls of the source. Calls come from the whole dose curve; as a rule, active = well fitted inhibition curve with a large enough effect; inconclusive = small, poorly fitted or top-dose-only effect, or effect the other way; inactive = no such curve, though single readings can be large or run the other way.
API: response.call in yes for active, no for inactive

Observe how each entry below is paired with its result.
Compound | Assigned Class
CC(=O)[C@H]1CC[C@H]2[C@@H]3CC[C@H]4C[C@](C)(O)CC[C@]4(C)[C@H]3CC[C@]12C | no
O=c1[nH]c2ccccc2n1C1CCN(CCCC(c2ccc(F)cc2)c2ccc(F)cc2)CC1 | yes
NCC(CC(=O)O)c1ccc(Cl)cc1 (centres undefined) | no
Cc1ncc(CNC(=O)N(CCCl)N=O)c(N)n1 | no
Cc1cccc(C)c1NC1=NCCCS1 | no

I'd appreciate the recorded outcome for C=C(C)[C@H]1Cc2c(ccc3c2O[C@@H]2COc4cc(OC)c(OC)cc4[C@@H]2C3=O)O1 from this test.
yes

Hi, do you know how CC(C)=CCOc1c2occc2cc2ccc(=O)oc12 came out in this test?
no

What is the recorded call for this compound in the test? CC[C@@H](CO)NC(=O)[C@@H]1C=C2c3cccc4c3c(cn4C)C[C@H]2N(C)C1
no

Record lookup: outcome of this test for CCCC(C)(COC(N)=O)COC(=O)NC(C)C (centres undefined) ?
no

Query: recorded result category for CC[C@@H](CO)NC(=O)[C@@H]1C=C2c3cccc4[nH]cc(c34)C[C@H]2N(C)C1 in this test
no

What did the test return for COc1ccc(C(CN(C)C)C2(O)CCCCC2)cc1 (centres undefined) ?
no

What outcome does the record of this test show for c1ccc(C2CC2)c(OCC2=NCCN2)c1 ?
no

Any idea what this test logged for CNCC(O)c1ccc(O)cc1 (centres undefined) ?
no

What did the test return for Cc1ccc(S(=O)(=O)N[C@@H](CCCCN)C(=O)CCl)cc1 ?
no

Which result was noted for this compound in the test: N#CC(C#N)=Cc1ccc(O)c(O)c1
no

What outcome does the record of this test show for C[C@@H]1O[C@@H](O[C@H]2C[C@@H](O)[C@]3(CO)[C@H]4[C@H](O)C[C@]5(C)[C@@H](C6=CC(=O)OC6)CC[C@]5(O)[C@@H]4CC[C@]3(O)C2)[C@H](O)[C@H](O)[C@H]1O ?
no

So what was the verdict on CN1C[C@H](CNC(=O)OCc2ccccc2)C[C@@H]2c3cccc4c3c(cn4C)C[C@H]21 in this test?
no

In this assay, the call recorded for Cc1cc2c(C(C)C)c(O)c(O)c(C=O)c2c(O)c1-c1c(C)cc2c(C(C)C)c(O)c(O)c(C=O)c2c1O was what?
yes

For O=C1NCN(c2ccccc2)C12CCN(CC1COc3ccccc3O1)CC2 (centres undefined) , which call appears in the assay record?
no
